assay: NCI Yeast Anticancer Drug Screen. Data for the bub3 strain (AID 167); settings: S. cerevisiae bub3 mutant strain, at 50.0 µM, stronger effect = higher value
The panel holds about 79,000 compounds, 15% with a hit somewhere; the sample as a whole holds those more often. Calls of active or inactive are those of the source. Cut-off read from the data, not from the text of the source: active = growth inhibition above about 70%; inactive = the rest.
Each entry below carries its recorded growth inhibition.

# annotated cases, reported growth inhibition shown
COMPOUND | ASSAY VALUE
Cc1c2ccccc2nc(CS(=O)(=O)c2ccccc2)[n+]1[O-] | -16.4% (inactive)
O=c1[nH]c2cc(Cl)c([N+](=O)[O-])cc2c2ccccc12 | -11.2% (inactive)

In plain terms, CCOC(=O)c1c2c(c(-c3ccccc3)n1C)C(=O)C(C)=C(C)C2=O has a documented growth inhibition of 1.05% (inactive)

In plain terms, O=C(O)c1ccccc1CC(Cc1ccccc1)C(=O)O (stereo not given) has a documented growth inhibition of -12.4% (inactive)

---

assay: NCI Yeast Anticancer Drug Screen. Data for the cln2 rad14 strain (AID 165);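 note: 0% = growth equal to vehicle treated cultures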; conditions: S. cerevisiae cln2 rad14 strain, at 50.0 µM, stronger effect = higher value
This is part of a sample that, as a whole, favours compounds with a hit. Of some 79,000 tested, about 15% had one in any assay.
Rule: growth inhibition of 10% or more gives criterion met; anything lower gives criterion not met.

Reference set (6 entries):
COMPOUND | QUALITATIVE LABEL
CCN(CC)c1ccccc1S(=O)(=O)O | criterion not met
COC(=O)CCNC(=O)OCc1ccccc1 | criterion met
O=C(Nc1ccccc1-c1ccccc1)c1cccnc1 | criterion not met
OC1(CSc2ccccc2)CCCCC1 | criterion not met
C=COC(=O)N1CCCCC1 | criterion not met
COCn1c2ccc(OC(C)=O)cc2c2c(=O)oc(N(C)C)nc21 | criterion not met

Exam item: decide whether the reported growth inhibition for CCOC(=O)/C(=C\c1ccccc1)c1nc2ccccc2[nH]1 is at least 10%.
criterion not met

Exam item: decide whether the reported growth inhibition for O=C(N/N=C/c1ccc(Cl)cc1Cl)C(O)(c1ccccc1)c1ccccc1 is at least 10%.
criterion met

Exam item: decide whether the reported growth inhibition for O=C(c1ccccc1)C(Br)C(Br)c1ccc([N+](=O)[O-])cc1 (centres undefined) is at least 10%.
criterion met

---

assay: NCI Yeast Anticancer Drug Screen. Data for the cln2 rad14 strain (AID 165);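 note: 0% = growth equal to vehicle treated cultures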; details: S. cerevisiae cln2 rad14 strain, at 50.0 µM, stronger effect = higher value
About 79,000 compounds went through this panel and 15% of them were active in at least one assay; those are over-represented in the sample as a whole.
PARAMETER MEASURED: growth inhibition (%)
Express your answer in %, writing the number without its unit.

# annotated cases, reported growth inhibition shown
COMPOUND | MEASURE UNIT | ASSAY VALUE
COC(=O)c1cc(=O)c2c(=O)[nH]c(=O)[nH]c2[nH]1 | % | -26.8
N#CCOS(=O)(=O)O | % | -6.7
Cc1ccc(O)cc1C=C(Cl)Cl | % | 22.8

In plain terms, CCN(CC)C(=S)SCCC(N)=O has a documented growth inhibition of 9.15

In plain terms, Nc1nnnn1NC(=O)NCCCl has a documented growth inhibition of -18.4

In plain terms, CC(C)Cc1[nH]nc2c1C(=O)C(Nc1ccccc1)=CC2=O has a documented growth inhibition of -7.65

In plain terms, COC(=O)N/N=C/c1cccnc1 has a documented growth inhibition of -72.2

In plain terms, Nc1ccc(C2NC(=O)Cc3c2ccc2ccccc32)cc1 (stereo not drawn) has a documented growth inhibition of -43.4

In plain terms, CCO/N=C(/CNC(=O)Oc1ccccc1)c1ccccc1 has a documented growth inhibition of 28

In plain terms, COc1ccc2cc(CC(=O)c3ccccc3)ccc2c1 has a documented growth inhibition of -37.8

In plain terms, Cc1ccccc1NC(=O)CC#N has a documented growth inhibition of 3.85

In plain terms, COc1cc(OC)nc(NS(=O)(=O)c2ccc(N)cc2)n1 has a documented growth inhibition of 19.6

In plain terms, CCOC(=O)C(Cl)(NC(=O)OCc1ccccc1)C(F)(F)F (stereo not drawn) has a documented growth inhibition of 22.5

In plain terms, C=C1C(O)CCC2(C)C1CCC1C2CCC2(C)C(C(C)CCCC(C)C)CCC12 (stereo not drawn) has a documented growth inhibition of -39.6

---

Each entry below carries its recorded growth inhibition.
Assay: NCI Yeast Anticancer Drug Screen. Data for the bub3 strain (AID 167)
Details: S. cerevisiae bub3 mutant strain, at 50.0 µM, stronger effect = higher value
Description: Growth inhibition of yeast strains with defined genetic alterations is measured as a screen for potential anti-cancer activity. Selected strains with alterations in DNA damage repair or cell cycle control were exposed to compounds and growth inhibition was measured relative to vehicle treated controls. The strain used in this assay is bub3
The panel holds about 79,000 compounds, 15% with a hit somewhere; the sample as a whole holds those more often. The source made the active and inactive calls. Cut-off read from the data, not from the text of the source: active = growth inhibition above about 70%; inactive = the rest.

COMPOUND | ASSAY VALUE
CN(CCC#N)c1ccc(/C=C(\C#N)c2ccc(Br)cc2)cc1 | -0.85% (inactive)
COC(=N)C(C)C | -6.2% (inactive)
COC1(OC)N=C(N)C2(C#N)/C(=N/N(C)C)CC(C)C12C#N (centres undefined) | -22.8% (inactive)
CCOC(=O)NC(=Cc1ccccn1)c1ccc(Cl)cc1 (mixture of isomers) | 4.25% (inactive)
CCOC(=O)c1cc(C)nc2c(Cl)cc(Cl)cc12 | 10.4% (inactive)

Could you now consider this next compound?
In plain terms, CC(=Nc1cccc(C(F)(F)F)c1)c1c(O)cc(C)oc1=O has a documented growth inhibition of 28.2% (inactive)

---

test: NCI Yeast Anticancer Drug Screen. Data for the sgs1 mgt1 strain (AID 161);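 note: 0% = growth of cultures given vehicle only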; settings: S. cerevisiae sgs1 mgt1 strain, at 50.0 µM, stronger effect = higher value
This is part of a sample that, as a whole, favours compounds with a hit. Of some 79,000 tested, about 15% had one in any assay.
Each entry below carries its recorded growth inhibition.
Express your answer in %, writing the number without its unit.

# annotated cases, reported growth inhibition shown
MOLECULE | MEASURE UNIT | growth inhibition
CN(CC(=O)O)c1ncc2c(n1)-c1ccccc1SC2 | % | 5.15
COC(=O)CCC1=C(C)C2=NC1=CC1=NC(=CC3=NC(=Cc4[nH]c(/c(=C\O)c4C)=C2)C(C=O)=C3C)C(C)=C1CCC(=O)OC | % | 32.2
CS(=O)(=O)OCC(CCl)(CCl)CCl | % | 0.15
Cc1ccc(-c2nnc(CCCCCCCCc3nnc(-c4ccc(C)cc4O)n3N)n2N)c(O)c1 | % | 3.75
COC(=O)CCNC(=O)OCc1ccccc1 | % | -16.7

In plain terms, C/C(CCC(=O)O)=N\NC(=O)COc1ccc(Cl)cc1Cl has a documented growth inhibition of 18.6

In plain terms, C/C(=N/C(=O)NN)c1ccc(Cl)cc1 has a documented growth inhibition of 42.9

In plain terms, CCCCCCP(=O)(CCCC)CCCC has a documented growth inhibition of 41.2

In plain terms, CCn1c(=O)c2[nH]c(Br)nc2n(CC)c1=O has a documented growth inhibition of 5.95

In plain terms, Cc1c(Cl)c(N)c(Cl)c(Cl)c1Cl has a documented growth inhibition of 19.1

In plain terms, CCC1(c2ccccc2)NC(=O)N(N)C1=O (stereo unspecified) has a documented growth inhibition of -8.8

In plain terms, O=c1[nH]c2c(Cl)cc(Cl)c(Cl)c2c2ccccc12 has a documented growth inhibition of 1.5

In plain terms, C=CCOc1cc2c(cc1C(C)c1ccc(OC)cc1)OCO2 (stereo unspecified) has a documented growth inhibition of 5.95

---

Each entry below carries its recorded growth inhibition.
test: NCI Yeast Anticancer Drug Screen. Data for the bub3 strain (AID 167); conditions: S. cerevisiae bub3 mutant strain, at 50.0 µM, stronger effect = higher value
The panel holds about 79,000 compounds, 15% with a hit somewhere; the sample as a whole holds those more often.
Express your answer in %, writing the number without its unit.

MOLECULE | MEASURE UNIT | growth inhibition
CN1/C(=C\N=O)C(C)(C)N(O)C1(C)C | % | 5.85

In plain terms, COc1cc2cnc(-c3ccncc3)c(N)c2cc1OC has a documented growth inhibition of 7.8

In plain terms, CON(C)c1nc2ccccc2o1 has a documented growth inhibition of -2.3

---

experiment: NCI Yeast Anticancer Drug Screen. Data for the sgs1 mgt1 strain (AID 161);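 note: 0% = growth of cultures given vehicle only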; conditions: S. cerevisiae sgs1 mgt1 strain, at 50.0 µM, stronger effect = higher value
Compounds without any hit were thinned out: in the full panel of roughly 79,000, 15% have a hit.
Rule: growth inhibition of 20% or more gives Met; anything lower gives Not met.

Reference set (5 entries):
COMPOUND | QUALITATIVE LABEL
O=[S@@]1Nc2cc3ccccc3cc2S1 | Not met
COc1cc(-c2cc(CCC(=O)Nc3ccccc3[N+](=O)[O-])n(-c3ccc([N+](=O)[O-])cc3[N+](=O)[O-])n2)ccc1O | Not met
OC1CC2CCCCC2CC1c1ccccc1 (centres undefined) | Not met
O=S(=O)(c1ccccc1)c1cccc2c[n+]3ccccc3cc12 | Met
Cc1cc(C)c(NC(=O)CC#N)cc1C | Not met

Exam item: decide whether the reported growth inhibition for COc1ccc(C2OCCCO2)cc1 is at least 20%.
Not met

Exam item: decide whether the reported growth inhibition for CO[C@@H]1O[C@H](C(=O)c2ccccc2)[C@H]2OC(C)(C)O[C@@H]12 is at least 20%.
Met

Exam item: decide whether the reported growth inhibition for O=C1C2C3C=CC(CC3)C2C(=O)C2C3C=CC(C3)C12 (centres undefined) is at least 20%.
Met

Exam item: decide whether the reported growth inhibition for O=c1[nH]c(=S)c2[nH]c(=O)n(-c3ccccc3)c2[nH]1 is at least 20%.
Not met

Reference source for all entries: PubChem BioAssay (NCI)
